Target: Serine/threonine-protein kinase Nek2 (Homo sapiens) (UniProt P51955)
Sequence (P51955 whole entry): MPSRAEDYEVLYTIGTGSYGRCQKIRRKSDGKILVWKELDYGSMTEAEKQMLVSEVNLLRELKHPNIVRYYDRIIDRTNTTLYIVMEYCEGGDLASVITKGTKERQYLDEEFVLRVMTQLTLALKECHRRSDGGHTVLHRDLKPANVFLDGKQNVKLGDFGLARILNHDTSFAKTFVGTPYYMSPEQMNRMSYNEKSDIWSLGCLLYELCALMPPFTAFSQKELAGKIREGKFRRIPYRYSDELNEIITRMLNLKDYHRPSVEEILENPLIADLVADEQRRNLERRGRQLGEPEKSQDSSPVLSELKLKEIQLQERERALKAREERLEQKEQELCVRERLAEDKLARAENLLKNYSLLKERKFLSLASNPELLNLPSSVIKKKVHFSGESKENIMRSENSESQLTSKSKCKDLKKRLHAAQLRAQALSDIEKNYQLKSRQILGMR
Assay: Inhibition of NEK2 (unknown origin) at 1 uM relative to control
Readout: inhibition (%)
Numeric only. Scale: %

Task: Please indicate inhibition recorded for O=S(=O)(c1ccc(-c2ccnc3[nH]ccc23)cc1)N1CCCC1
Output: 16

Task: Please indicate inhibition recorded for Cn1cc(-c2ccc3c(c2)CCN3C(=O)Cc2cccc(C(F)(F)F)c2)c2c(N)ncnc21
Output: 15

Task: Please indicate inhibition recorded for CC[C@@H]1C(=O)N(C)c2cnc(Nc3ccc(C(=O)NC4CCN(C)CC4)cc3OC)nc2N1C1CCCC1
Output: 72

Task: Please indicate inhibition recorded for Cn1cc(-c2ccc3c(c2)CCN3C(=O)Cc2cc(F)cc(F)c2F)c2c(N)ncnc21
Output: 84

Task: Please indicate inhibition recorded for Cn1cc(-c2ccc3c(c2)CCN3C(=O)Cc2cccc(Cl)c2)c2c(N)ncnc21
Output: 66

Task: Please indicate inhibition recorded for COc1cccc(CC(=O)N2CCc3cc(-c4cn(C)c5ncnc(N)c45)ccc32)c1
Output: 74

Task: Please indicate inhibition recorded for NCCNS(=O)(=O)c1ccc(-c2ccnc3[nH]ccc23)cc1
Output: 0

Task: Please indicate inhibition recorded for COc1ccc(C2=C(Nc3cccc(C(=O)O)c3)C(=O)NC2=O)cc1
Output: 10

Task: Please indicate inhibition recorded for COc1cccc(C2=C(Nc3cccc(Cl)c3)C(=O)NC2=O)c1
Output: 13

Task: Please indicate inhibition recorded for Cc1ccccc1CC(=O)N1CCc2cc(-c3cn(C)c4ncnc(N)c34)ccc21
Output: 97

====

Target: Serine/threonine-protein kinase Nek9 (Homo sapiens) (UniProt Q8TD19)
Sequence (whole entry): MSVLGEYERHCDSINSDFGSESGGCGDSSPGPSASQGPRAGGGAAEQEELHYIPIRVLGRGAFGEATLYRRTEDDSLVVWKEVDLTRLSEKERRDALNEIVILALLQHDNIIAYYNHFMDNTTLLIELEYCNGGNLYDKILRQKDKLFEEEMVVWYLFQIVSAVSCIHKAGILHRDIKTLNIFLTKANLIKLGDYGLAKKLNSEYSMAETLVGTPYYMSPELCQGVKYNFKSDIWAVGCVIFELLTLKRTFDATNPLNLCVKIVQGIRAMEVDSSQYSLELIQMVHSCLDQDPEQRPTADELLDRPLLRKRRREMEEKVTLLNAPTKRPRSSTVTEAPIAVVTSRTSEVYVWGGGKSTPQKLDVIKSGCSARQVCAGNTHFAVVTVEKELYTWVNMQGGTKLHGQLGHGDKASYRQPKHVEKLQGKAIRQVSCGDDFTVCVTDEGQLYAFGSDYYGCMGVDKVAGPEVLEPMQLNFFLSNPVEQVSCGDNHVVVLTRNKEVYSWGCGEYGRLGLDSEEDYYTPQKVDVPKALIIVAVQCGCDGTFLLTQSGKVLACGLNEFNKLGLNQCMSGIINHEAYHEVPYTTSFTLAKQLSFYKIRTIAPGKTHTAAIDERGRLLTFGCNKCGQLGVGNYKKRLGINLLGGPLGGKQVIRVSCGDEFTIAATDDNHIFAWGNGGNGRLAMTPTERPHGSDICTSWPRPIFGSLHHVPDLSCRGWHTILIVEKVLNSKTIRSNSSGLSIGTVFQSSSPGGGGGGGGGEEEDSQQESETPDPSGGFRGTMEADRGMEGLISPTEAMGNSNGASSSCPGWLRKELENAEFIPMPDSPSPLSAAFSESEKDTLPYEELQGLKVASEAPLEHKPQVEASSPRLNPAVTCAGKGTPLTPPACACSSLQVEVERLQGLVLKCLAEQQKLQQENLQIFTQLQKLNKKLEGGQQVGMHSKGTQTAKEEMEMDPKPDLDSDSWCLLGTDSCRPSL
Assay: Inhibition of NEK9 (unknown origin) at 1 uM relative to control
Threshold check on inhibition: at or above 1% gives yes (1), strictly below gives no (0).

Task: # bool: inhibition of Cn1cc(-c2ccc3c(c2)CCN3C(=O)Cc2cccc(C(F)(F)F)c2)c2c(N)ncnc21 >= 1%
Output: yes (1)

Task: # bool: inhibition of CS(=O)(=O)Nc1ccc(-c2ccnc3[nH]ccc23)cc1 >= 1%
Output: yes (1)

Task: # bool: inhibition of COc1cc(Nc2ncc3c(C)nc(-c4cccc(C(F)(F)F)c4)n3n2)cc(OC)c1OC >= 1%
Output: yes (1)

Task: # bool: inhibition of Nc1ncc(-c2cccnc2)c2scc(-c3ccc4c(c3)CCN4C(=O)Cc3ccccc3)c12 >= 1%
Output: yes (1)

Task: # bool: inhibition of Cn1cc(-c2ccc3c(c2)CCN3C(=O)Cc2ccccc2Cl)c2c(N)ncnc21 >= 1%
Output: yes (1)

Task: # bool: inhibition of Cn1cc(-c2ccc3c(c2)CCN3C(=O)Cc2cc(F)cc(F)c2F)c2c(N)ncnc21 >= 1%
Output: yes (1)

Task: # bool: inhibition of CC(C)c1nc(-c2cccc(NS(=O)(=O)c3c(F)cccc3F)c2F)c(-c2ccnc(Nc3ccc(N4CCOCC4)nc3)n2)s1 >= 1%
Output: yes (1)

Task: # bool: inhibition of Cn1cc(-c2cnc(N)c3c(-c4ccc5c(c4)CCN5C(=O)Cc4ccccc4)csc23)cn1 >= 1%
Output: no (0)

Task: # bool: inhibition of O=c1[nH]ccc2nc(N[C@@H]3CCCNC3)nc(Nc3ccc(S(=O)(=O)N4CCOCC4)cc3)c12 >= 1%
Output: yes (1)

Task: # bool: inhibition of c1ccc(-c2ccnc3[nH]ccc23)cc1 >= 1%
Output: no (0)

Task: # bool: inhibition of Cc1ccccc1CC(=O)N1CCc2cc(-c3cn(C)c4ncnc(N)c34)ccc21 >= 1%
Output: no (0)

====

Would you kindly list % control for each of these compounds?
Molecular target: Serine/threonine-protein kinase Nek7 (Homo sapiens) (UniProt Q8TDX7)
Sequence (Q8TDX7 whole entry, looked up): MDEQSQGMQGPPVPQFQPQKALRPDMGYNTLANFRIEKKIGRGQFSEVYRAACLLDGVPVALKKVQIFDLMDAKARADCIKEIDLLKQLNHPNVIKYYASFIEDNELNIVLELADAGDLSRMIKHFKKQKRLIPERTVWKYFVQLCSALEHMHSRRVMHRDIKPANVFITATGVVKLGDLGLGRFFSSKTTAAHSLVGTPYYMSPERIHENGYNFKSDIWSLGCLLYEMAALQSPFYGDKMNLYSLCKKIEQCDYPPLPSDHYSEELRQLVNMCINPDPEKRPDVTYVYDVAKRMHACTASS
Test: Inhibition of NEK7 (unknown origin) at 10 uM relative to control
Numeric only. Scale: %

Task: Please indicate % control recorded for CN(C)C/C=C/C(=O)Nc1cccc(C(=O)Nc2ccc(Nc3nccc(-c4cccnc4)n3)cc2)c1
Output: 7

Task: Please indicate % control recorded for CN(C)C/C=C/C(=O)Nc1cccc(C(=O)Nc2ccc(Nc3nccc(-c4c(-c5ccccc5)nn5ccccc45)n3)cc2)c1
Output: 100

Task: Please indicate % control recorded for Cc1ccc(NC(=O)c2ccc(NC(=O)/C=C/CN(C)C)cc2)cc1Nc1nccc(-c2cccnc2)n1
Output: 20

Task: Please indicate % control recorded for CN(C)C/C=C/C(=O)Nc1cccc(C(=O)Nc2ccc(Nc3nccc(/C(C#N)=C4\Nc5ccccc5S4)n3)cc2)c1
Output: 100

====

Target: Serine/threonine-protein kinase Nek5 (Homo sapiens) (UniProt Q6P3R8)
Sequence (Q6P3R8 whole entry): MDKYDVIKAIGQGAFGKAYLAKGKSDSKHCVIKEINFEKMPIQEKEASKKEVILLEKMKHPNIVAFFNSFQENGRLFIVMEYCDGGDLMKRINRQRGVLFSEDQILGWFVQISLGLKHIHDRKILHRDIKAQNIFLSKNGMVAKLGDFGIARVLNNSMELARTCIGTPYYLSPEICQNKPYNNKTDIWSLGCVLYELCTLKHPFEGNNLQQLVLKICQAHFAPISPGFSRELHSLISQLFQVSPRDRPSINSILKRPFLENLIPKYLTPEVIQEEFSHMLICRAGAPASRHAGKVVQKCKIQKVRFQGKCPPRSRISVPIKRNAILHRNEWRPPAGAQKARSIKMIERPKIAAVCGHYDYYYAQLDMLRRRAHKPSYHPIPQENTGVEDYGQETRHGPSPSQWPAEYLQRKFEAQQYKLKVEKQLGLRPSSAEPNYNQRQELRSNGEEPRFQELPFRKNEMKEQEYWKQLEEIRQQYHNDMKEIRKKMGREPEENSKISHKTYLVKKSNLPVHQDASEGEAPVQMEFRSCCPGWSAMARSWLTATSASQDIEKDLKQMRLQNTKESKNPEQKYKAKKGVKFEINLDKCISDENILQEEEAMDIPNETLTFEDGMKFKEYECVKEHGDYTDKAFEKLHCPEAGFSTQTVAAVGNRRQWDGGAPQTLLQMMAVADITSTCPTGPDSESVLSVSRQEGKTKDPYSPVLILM
Experiment: Inhibition of NEK5 (unknown origin) at 10 uM relative to control
Readout: % control (%)
Numeric only. Scale: %

Task: Please indicate % control recorded for CN(C)C/C=C/C(=O)Nc1cccc(C(=O)Nc2ccc(Nc3nccc(-c4c(-c5ccccc5)nn5ccccc45)n3)cc2)c1
Output: 98

Task: Please indicate % control recorded for CN(C)C/C=C/C(=O)Nc1cccc(C(=O)Nc2ccc(Nc3nccc(/C(C#N)=C4\Nc5ccccc5S4)n3)cc2)c1
Output: 100

Task: Please indicate % control recorded for CN(C)C/C=C/C(=O)Nc1cccc(C(=O)Nc2ccc(Nc3nccc(-c4cccnc4)n3)cc2)c1
Output: 7.8

Task: Please indicate % control recorded for Fc1cc(-c2cc[nH]/c(=N/c3ccc(-n4cnc(N5CCOCC5)n4)cc3)n2)cc(N2CCOCC2)c1
Output: 1.4

====

Biological target: Serine/threonine-protein kinase Nek9 (Homo sapiens) (UniProt Q8TD19)
Experiment: Inhibition of NEK9 (unknown origin) at 1 uM relative to control
Readout: inhibition (%)
Numeric only. Scale: %

Task: Please indicate inhibition recorded for Cn1cc(-c2ccc3c(c2)CCN3C(=O)Cc2cc(F)cc(C(F)(F)F)c2)c2c(N)ncnc21
Output: 25

Task: Please indicate inhibition recorded for Cn1cc(-c2ccc3c(c2)CCN3C(=O)Cc2cccc(Cl)c2)c2c(N)ncnc21
Output: 18

Task: Please indicate inhibition recorded for COc1cc(Nc2ncc3c(C)nc(-c4cccc(Oc5ccccc5)c4)n3n2)cc(OC)c1OC
Output: -1

Task: Please indicate inhibition recorded for Cc1ccc(CC(=O)N2CCc3cc(-c4cn(C)c5ncnc(N)c45)ccc32)cc1
Output: 20

Task: Please indicate inhibition recorded for COc1ccc(C2=C(Nc3cccc(C(=O)O)c3)C(=O)NC2=O)cc1
Output: 2

Task: Please indicate inhibition recorded for Nc1nccc2scc(-c3ccc4c(c3)CCN4C(=O)Cc3ccccc3)c12
Output: 18

Task: Please indicate inhibition recorded for COc1cccc(C2=C(Nc3cccc(O)c3)C(=O)NC2=O)c1
Output: 15

Task: Please indicate inhibition recorded for Nc1ncc(-c2cn[nH]c2)c2scc(-c3ccc4c(c3)CCN4C(=O)Cc3ccccc3)c12
Output: 0

Task: Please indicate inhibition recorded for Nc1nccc2scc(-c3ccc4c(c3)CCN4C(=O)Cc3cc(F)ccc3F)c12
Output: 4

Task: Please indicate inhibition recorded for COc1cc(Nc2ncc3c(C)nc(-c4cc5ccccc5[nH]4)n3n2)cc(OC)c1OC
Output: 70

Task: Please indicate inhibition recorded for COc1cccc(C2=C(Nc3ccc(Cl)c(C(=O)O)c3)C(=O)NC2=O)c1
Output: 0

Task: Please indicate inhibition recorded for COc1cccc(CC(=O)N2CCc3cc(-c4cn(C)c5ncnc(N)c45)ccc32)c1
Output: 25

Task: Please indicate inhibition recorded for CC(C)Oc1ccc2c(-c3ccnc(Nc4ccc(N5CCN(C)CC5)cc4)n3)cnn2n1
Output: 7.1

Task: Please indicate inhibition recorded for O=S(=O)(c1ccc(-c2ccnc3[nH]ccc23)cc1)N1CCCC1
Output: 28

Task: Please indicate inhibition recorded for CN(C)CCNS(=O)(=O)c1ccc(-c2ccnc3[nH]ccc23)cc1
Output: 0

Task: Please indicate inhibition recorded for Cn1cc(-c2ccc3c(c2)CCN3C(=O)Cc2cccc(F)c2)c2c(N)ncnc21
Output: 0

Task: Please indicate inhibition recorded for O=C1NC(=O)C(c2ccccc2Cl)=C1Nc1cccc(Cl)c1
Output: 20

Task: Please indicate inhibition recorded for COc1ccc(Nc2ncc(C#N)c(Nc3ccccc3C(N)=O)n2)cc1N1CCN(C)CC1
Output: 1.8

Task: Please indicate inhibition recorded for CC(C)c1nc(-c2cccc(NS(=O)(=O)c3ccccc3)c2)c(-c2ccnc(Nc3ccc4c(c3)CN(C)CC4)n2)s1
Output: 49

Task: Please indicate inhibition recorded for NCCNS(=O)(=O)c1ccc(-c2ccnc3[nH]ccc23)cc1
Output: 22

Data provenance: ChEMBL document CHEMBL5252509
